target-under-test: IDH1 R132H enzyme (Homo sapiens (Human), UniProt O75874, R132H)
Sequence (O75874 whole entry R132H): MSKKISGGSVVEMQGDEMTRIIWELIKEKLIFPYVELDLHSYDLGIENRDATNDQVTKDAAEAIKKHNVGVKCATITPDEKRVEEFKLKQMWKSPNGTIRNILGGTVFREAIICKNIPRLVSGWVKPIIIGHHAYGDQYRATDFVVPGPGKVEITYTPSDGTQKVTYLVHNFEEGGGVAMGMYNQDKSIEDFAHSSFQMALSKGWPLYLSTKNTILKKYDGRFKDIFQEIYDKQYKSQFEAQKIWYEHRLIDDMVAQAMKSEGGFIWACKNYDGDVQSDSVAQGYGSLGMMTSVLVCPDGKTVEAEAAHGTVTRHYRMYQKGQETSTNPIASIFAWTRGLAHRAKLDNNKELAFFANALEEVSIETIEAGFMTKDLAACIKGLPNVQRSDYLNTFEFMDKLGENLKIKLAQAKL
assay-comment: Mutant IDH1 R132H biochemical assay
recorded-conditions: NADPH consumption, luminescent readout; 1.5 nM enzyme, 1 μM NADPH, 250 μM α-KG, 30 minutes, 32° C.
Method: Mutant IDH1 R132H Biochemical Assay mIDH1 catalyzes the NADPH-dependent reduction of alpha-ketoglutarate (a-KG) to (2R)-2-hydroxyglutarate (2-HG). NADPH consumption was measured by luminescent readout. […] The reaction was incubated for 30 minutes, then 40 μL of detection mix (0.75 μg/ml Luciferase, 0.02 U/ml Oxidoreductase, 4 μg/mL FMN, 2 μL/ml decanal/ethanol, 50 mM Tris pH 7.5, 0.5% Glycerin, 0.01% Tween-20, 0.05% BSA) was added. […] The decrease in luminescence is proportional to mIDH1 activity. […]
readout-name: IC50 (nM)

- mol: "Cc1cc2c(cc1C(=O)O)nc(Nc1ccc(C(C)C)cc1)n2[C@@H]1C[C@H](C)CC[C@H]1C(C)C"
  unit-symbol: "nM"
  IC50: 7.5

a. COC(=O)CCc1cc2nc(Nc3ccc(OC(F)(F)F)cc3)n([C@@H]3C[C@H](C)CC[C@H]3C(C)C)c2cc1OC
b. CC(C)Oc1ccc(Nc2nc3cc(C(=O)O)ccc3n2[C@@H]2C[C@H](C)CC[C@H]2C(C)C)cc1
c. COC(=O)Cc1cc2nc(Nc3ccc(OC(C)C)cc3)n([C@@H]3C[C@H](C)CC[C@H]3C(C)C)c2cc1C
d. COC(=O)Cc1cc2nc(Nc3ccc(OC(F)(F)F)cc3)n([C@@H]3C[C@H](C)CC[C@H]3C(C)C)c2cc1C
[in] Give the ascending ranking of the items by reported IC50. Please respond by ranking the labels in the order requested.
[out] b, d, c, a

a. CC(C)c1ccc(Nc2nc3cc(C(=O)O)ccc3n2[C@@H]2C[C@H](C)CC[C@H]2C(C)C)cc1
b. COc1cc2c(cc1CC(=O)O)nc(Nc1ccc(OC(C)C)cc1)n2[C@@H]1C[C@H](C)CC[C@H]1C(C)C
[in] Response body: label of entry with the larger IC50; valid values a , b . # respond with the chosen item's label
[out] b
(b: 70 nM, a: 6.3 nM)
